System: Chordin-like protein 2 (CHRDL2)
Assay: CHRDL2 small-molecule binders, primary screen, biochemical, small-molecule microarray, 635 nm fluorescence (AID 1126);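 also: printed compound slides probed with Chrdl2 protein at 4 µg/mL for 1 h at 4 C; score merges 667 nm emission intensity with signal to noise over three replicate slides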
Details: small-molecule microarray binding, fluorescence 635 nm; higher = more signal
composite z-score listing for selected compounds.

Compound	composite z-score
NC(=O)N1C(=O)C2C(C1=O)C1C=C(CCCO)C2C(c2cccs2)N1Cc1cccc(OC(F)(F)F)c1 (stereo unspecified)	-0.0665
CN1C(=O)C2C=CC(C(O)c3cccc4ccccc34)N(N3CCCCC3)C2C1=O (stereo unspecified)	-0.227
COC(=O)C1=CC(CCCO)=CC(C2CC2)N(C)C=C1C(=O)OC (stereo unspecified)	-0.761
NC(=O)NCC#Cc1ccc2c(c1)[C@]1(C(=O)N2)[C@H](C(=O)NC[C@H](O)c2ccccc2)[C@H]2C(=O)O[C@H](c3ccccc3)[C@H](c3ccccc3)N2[C@@H]1c1ccc(OCCO)cc1	-0.0806
C=CC[C@]1(C(=O)NCCN2CCOCC2)N=C(c2ccc(OCCCO)cc2)O[C@H]1c1ccccc1CN=[N+]=[N-]	1.38
COc1ccccc1CN1C(=O)c2ccccc2[C@@]2(Cc3ccccc3N(CC(F)(F)F)C2=O)[C@@H]1c1ccc(CO)cc1	1.03
CC(c1ccccc1)C(O)C1C=CC2C(=O)N(c3ccccc3)C(=O)C2N1Nc1ccc([N+](=O)[O-])cc1 (stereo unspecified)	-0.661
C=C(C)[C@@H]1CC=C(C(O)C2C=CC3C(=O)N(c4ccccc4)C(=O)C3N2Nc2ccccc2F)CC1 (stereo partly specified)	0.0095
C[N+](C)(C)CCCC[C@@H]1NC(=O)[C@H]2C[C@@H](C(=O)NCCCCCCN)[C@@H](c3ccc(O)cc3)N2C1=O	-0.117
COC(=O)[C@@]1(Cc2ccc(OC)cc2)[C@@H]2C(=CC(=O)[C@H]2CC(=O)C(=O)N(C)C)CN1C(=O)c1ccccc1	-0.501
CC(=O)c1ccc(C(O)C2C=CC3C(=O)N(c4ccccc4)C(=O)C3N2Nc2ccc(C#N)cc2)cc1 (stereo unspecified)	-0.624
CO[C@]12C=C(Br)[C@@H](C[C@@H]1c1cccc(C)c1)[C@@]1(CO1)C2=O	0.306
C[C@@H]1NC(=O)[C@@]23C(=O)N[C@@H](Cc4ccccc4)C2[C@H](C)[C@@]2(C)O[C@H]2C3/C=C/C/C=C\CNC(=O)[C@@H]2CCCN2C1=O (stereo partly specified)	0.18
C=C(/C(=C/C[C@H](OC(C)=O)c1cccc(OCCO)c1)c1cnc2ccccc2c1)C(C)C	1.05
O=C1N(Cc2ccccc2)c2ccccc2[C@@H]2OC(c3ccc(OCCCO)cc3)=N[C@]12Cc1ccccc1	0.29
C[C@@H]1ON(c2ccc(C(=O)OC(C)(C)C)cc2)[C@H](c2ccc(O)cc2)[C@H]1C(=O)N1C(=O)OC[C@H]1Cc1ccccc1	0.448

----------
Listing: composite z-score of selected compounds
Assay: binders of probe aFST on microarray, primary screen, stem cell growth factor project, biochemical, small-molecule microarray, fluorescence 635/667 (AID 1086);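 also: score merges 667 nm fluorescence with signal-to-noise of each printed compound spot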
Details: higher = more signal

Compound	composite z-score
C=C[C@@H](COC(C)=O)N(C(=O)OC(C)(C)C)S(=O)(=O)c1ccc(Br)cc1	0.157
CCCCC(O)C1C=CC2C(=O)N(c3ccccc3)C(=O)C2N1Nc1ccc(C(C)C)cc1 (configuration not stated)	1.13
COC(=O)c1c(CC[C@@H](CO)NC(=O)N2CCC[C@H]2Cn2cc(Cc3ccccc3)nn2)oc(C(C)=O)c1C(=O)OC	0.22
COCCOC(=O)N1C(=O)[C@@]2(c3cc(C#CCC(C(=O)OC)C(=O)OC)ccc31)[C@H](C(=O)N1CCc3cc(OC)c(OC)cc3C1)[C@H]1C(=O)O[C@H](c3ccccc3)[C@H](c3ccccc3)N1[C@@H]2c1ccc(OCCO)cc1	0.479
CN1C(=O)C2C=CC(C(O)c3cccc(O)c3)N(Nc3ccccc3)C2C1=O (configuration not stated)	0.495
COc1ccc([Si](C)(C)[C@@H]2[C@@H](CC(=O)N(CCO)Cc3ccccc3)O[C@]3(C(=O)N(Cc4cccc(N5C(=O)c6cccc7cccc5c67)c4)c4ccccc43)[C@H]2C)cc1	0.116
C=CC1c2cc(O)c(OC)cc2CCN1Cc1cc2c(cc1Br)OCO2 (configuration not stated)	0.221

----------
Assay: binders from COS7 lysate, DM2A8 probe, primary screen, torsin A project, cell lysate, small-molecule microarray, fluorescence 635/667 (AID 1065)
Settings: higher = more signal, COS7 lysate expressing mutant human TOR1A
Documented composite z-score across a set of compounds
Parameter: composite z-score

Compound	Parameter	Readout Number
COc1ccc([Si](C)(C)[C@@H]2[C@@H](CC(=O)N(CCO)Cc3ccccc3)O[C@]3(C(=O)N(Cc4cccc(N5C(=O)c6cccc7cccc5c67)c4)c4ccccc43)[C@H]2C)cc1	composite z-score	0.167
C=CC[C@@]1(C(=O)N2CCOCC2)N=C(c2ccc(OCCCO)cc2)O[C@@H]1c1ccccc1CN=[N+]=[N-]	composite z-score	0.326
C[N+](C)(C)CCCCCCNC(=O)[C@H]1C[C@H]2C(=O)N[C@@H](Cc3ccccc3)C(=O)N2[C@H]1c1ccc(O)cc1	composite z-score	0.375
CC(C)(C)OC(=O)CC[C@]1(C(=O)NCC(O)CO)N=C(c2ccc(OCCCO)cc2)O[C@H]1c1ccccc1 (stereo not given in full)	composite z-score	1.58
CC1=C([C@H](O)CCc2ccccc2)[C@H](CO)[C@@H]2C(=O)N(C)C(=O)[C@@H]2C1	composite z-score	0.388
O=c1n(-c2ccccc2)c(=O)n2n1CC(COc1ccccc1)=C([C@H](O)CCc1ccccc1)[C@@H]2CO	composite z-score	-0.0765
CC1=C[C@@]2(CO)C(=O)[C@]3(CO3)[C@@H]1[C@H]1[C@]2(C)C=C(CO)C(=O)[C@]12CO2	composite z-score	-0.42
CC(CO)N1C(=O)[C@@H]2[C@H]3C(=O)OCC=C[C@H]3OC23C=CCN(CCN2CCOCC2)C(=O)[C@@H]13 (stereo not given in full)	composite z-score	-0.0708
O=C1O[C@H](c2ccccc2)[C@H](c2ccccc2)N2[C@H]1[C@@H](C(=O)Nc1nc3ccccc3s1)[C@]1(C(=O)Nc3ccc(C#CCCO)cc31)[C@H]2c1ccc(O)cc1	composite z-score	0.931
C=CCN1Cc2ccccc2[C@H]2OC(c3ccc(OCCCO)cc3)=N[C@@]2(CC=C)C1=O	composite z-score	0.169
CCCC[C@@H]1C[C@H]1[C@@H](NC(=O)c1cccs1)c1ccc(C(F)(F)F)cc1	composite z-score	-0.0988
COC(=O)c1c2oc(c1C(=O)OC)C(=O)N(C)Cc1cn(nn1)C[C@H](Cc1ccccc1)NC(=O)N[C@H](CO)CC2	composite z-score	-0.705
N#Cc1ccc(C(O)C2C=CC3C(=O)N(c4ccccc4)C(=O)C3N2Nc2ccccc2)cc1 (stereo not given)	composite z-score	0.0518
C=C(/C(=C/C[C@H](OC(C)=O)c1ccccc1OCCO)c1cc(C(=O)OC)ccc1OC)C(C)C	composite z-score	-0.415
COCCOC(=O)N1C(=O)[C@@]2(c3cc(C#CC4(O)CCCCCC4)ccc31)[C@H](c1ccc(O)cc1)N1[C@H](c3ccccc3)[C@H](c3ccccc3)OC(=O)[C@H]1[C@@H]2C(=O)NC[C@H](O)c1ccccc1	composite z-score	0.556

----------
Assay: binders of probe aFSTL3 on microarray, primary screen, stem cell growth factor project, biochemical, small-molecule microarray, fluorescence 635/667 (AID 1064);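 also: measures binding of the biotinylated anti-FSTL3 antibody to printed compounds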
Conditions: higher = more signal

Molecule	composite z-score
C=CCOC(=O)[C@H]1[C@@H]2C(=O)O[C@@H](c3ccccc3)[C@@H](c3ccccc3)N2[C@@H](c2ccc(OCCOC(=O)[C@@H]3C[C@@H]4C(=O)N5CCC[C@H]5C(=O)N4[C@@H]3c3ccc(O)cc3)cc2)[C@]12C(=O)Nc1ccc(I)cc12	0.011
COC(=O)[C@@]1(Cc2ccc(F)cc2)[C@H]2c3cc(C(=O)N(C)C)n(Cc4cc(F)cc5c4OCOC5)c3C[C@H]2CN1C(=O)c1ccccc1	0.149
CN(C)C(=O)C1N=C(c2ccc(OCCCO)cc2)N(c2ccccc2)O1 (configuration not stated)	-0.135
COC(=O)[C@@]1(Cc2ccccc2)[C@@H]2C(=CC(=O)[C@H]2CC(=O)C(=O)N(C)C)CN1C(=O)c1ccccc1	0.152
O=C1OCCC=C[C@H]2OC34C=CCN(Cn5nnc6ccccc65)C(=O)[C@H]3N(CCCCCCO)C(=O)[C@@H]4C12 (some centres not stated)	0.603
CCOC(=O)C1=CC[C@@H](c2ccc(OCc3ccccc3)c(OC)c2)N(S(=O)(=O)c2ccc(C)cc2)[C@H]1c1ccc(SC)cc1	0.152
C[N+](C)(C)CCCCCCNC(=O)[C@H]1C[C@H]2C(=O)NCC(=O)N2[C@H]1c1ccc(O)cc1	-0.411

----------
# composite z-score per record follows
System: Inhibin beta A chain (activin A)
Assay: INHBA (activin A) binders on microarrays, primary screen, biochemical, small-molecule microarray, 635 nm fluorescence scan (AID 1107);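 also: mouse activin A protein probed at 4.33 µg/mL on printed slides; score merges bound-protein fluorescence near 667 nm with spot signal-to-noise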
Settings: small-molecule microarray binding, higher = more signal
Parameter: composite z-score

Molecule	Parameter	Readout Number
COCCOC(=O)N1C(=O)[C@@]2(c3cc(C#Cc4ccc(OC)cc4)ccc31)[C@H](c1ccccc1OCCO)N1[C@H](c3ccccc3)[C@H](c3ccccc3)OC(=O)[C@H]1[C@@H]2C(=O)N1CCCCCCC1	composite z-score	1.91
[N-]=[N+]=Nc1ccccc1C[C@]1(C(N)=O)N=C(c2ccc(OCCCO)cc2)O[C@H]1c1ccccc1N=[N+]=[N-]	composite z-score	1.25
COc1ccc(CN(C2=CC[C@@]3(C(N)=O)C(=O)C(Cl)=C(Cl)C(=O)[C@@]3(C#N)C2)S(=O)(=O)c2ccc(Br)cc2)cc1	composite z-score	1.03
COc1ccccc1CN1C(=O)c2ccccc2[C@@]2(Cc3ccccc3N(CC(F)(F)F)C2=O)[C@@H]1c1ccc(CO)cc1	composite z-score	1.03
[N-]=[N+]=NCc1ccccc1[C@@H]1OC(c2ccc(OCCCO)cc2)=N[C@]1(CCS(=O)(=O)c1ccccc1)C(=O)NCC(O)CO (some centres undefined)	composite z-score	0.736
C=CCC(OC(C)=O)[C@@H]1[C@@H](N(Cc2ccc(-c3ccccc3)cc2)C(=O)Cc2ccc(F)cc2)c2cc(OCCCO)ccc2N1C(=O)Cc1ccc(OC)cc1 (some centres undefined)	composite z-score	1.14
CC(C)(C)N1CC=CC23O[C@@H]4C=CCOC(=O)[C@@H]4[C@H]2C(=O)N(CCCCCCO)[C@@H]3C1=O (some centres undefined)	composite z-score	0.294
CCCNC(=O)[C@@H]1c2ccccc2C(=O)N(C(C)C)[C@H]1c1ccc(CO)cc1	composite z-score	0.534
COc1ccc(CCNC(=O)[C@@]2(Sc3ccc(C)cc3)CC(=O)N(C3Cc4ccccc4C3)[C@@H]2c2ccc(CO)cc2)cc1	composite z-score	1.23
CCOC(=O)C[C@H]1[C@H](OC(=O)c2cc3ccccc3oc2=O)[C@@H](NC(=O)c2ccc(-c3ccccc3)cc2)c2cc(OCCCO)ccc2N1C(=O)c1ccccc1	composite z-score	0.479
CCOc1cc(C(O)C2C=CC3C(=O)N(C)C(=O)C3N2Nc2ccccc2)ccc1O (centres undefined)	composite z-score	0.569
C[C@@H]1ON(c2ccc(C(=O)OC(C)(C)C)cc2)[C@H](c2ccc(O)cc2)[C@H]1C(=O)N1C(=O)OC[C@H]1Cc1ccccc1	composite z-score	-0.0851
COCCCNC(=O)[C@]1(CCS(=O)(=O)c2ccccc2)N=C(c2ccc(OCCCO)cc2)O[C@@H]1c1ccccc1CN=[N+]=[N-]	composite z-score	0.746
COc1cc2c(cc1O)C(C)N(Cc1ccc([N+](=O)[O-])o1)CC2 (centres undefined)	composite z-score	1.31

These data points were gathered from PubChem BioAssay.
